Parameter: residual activity. Scope: all listed entries.
Biological target: DAPK2 (human)
Experiment: radiometric filter-binding kinase assay, Kinase HotSpot
Details: compound 0.5 µM; ATP 10 µM

>  <moleculeSmiles>
O=C(O)c1ccc2c3c1cccc3c(=O)n1c3ccccc3nc21

>  <measuredTarget>
DAPK2 (human)

>  <valueUnit>
%

>  <residual activity>
91.9

$$$$
>  <moleculeSmiles>
O=C1NC(=O)c2cc(Nc3ccc(F)cc3)c(Nc3ccc(F)cc3)cc21

>  <measuredTarget>
DAPK2 (human)

>  <valueUnit>
%

>  <residual activity>
96.7

$$$$
>  <moleculeSmiles>
COc1cc2ncnc(Nc3ccc(O)c(Br)c3)c2cc1OC

>  <measuredTarget>
DAPK2 (human)

>  <valueUnit>
%

>  <residual activity>
100

$$$$
>  <moleculeSmiles>
O=C1NC(=O)c2c1c1c3ccccc3[nH]c1c1[nH]c3cc(Br)ccc3c21

>  <measuredTarget>
DAPK2 (human)

>  <valueUnit>
%

>  <residual activity>
98.4

$$$$
>  <moleculeSmiles>
O=c1cc(N2CCOCC2)oc2c(-c3ccccc3)cccc12

>  <measuredTarget>
DAPK2 (human)

>  <valueUnit>
%

>  <residual activity>
126

$$$$
>  <moleculeSmiles>
N#C/C(=C1/Nc2ccccc2S1)c1ccnc(NCCc2cccnc2)n1

>  <measuredTarget>
DAPK2 (human)

>  <valueUnit>
%

>  <residual activity>
119

$$$$
>  <moleculeSmiles>
COc1cccc(-c2cc(=O)c3ccccc3o2)c1N

>  <measuredTarget>
DAPK2 (human)

>  <valueUnit>
%

>  <residual activity>
107

$$$$
>  <moleculeSmiles>
Nc1ncnc2c1cnn2-c1ccccc1

>  <measuredTarget>
DAPK2 (human)

>  <valueUnit>
%

>  <residual activity>
96.7

$$$$
>  <moleculeSmiles>
CCOc1cc2ncnc(Nc3cccc(Br)c3)c2cc1OCC

>  <measuredTarget>
DAPK2 (human)

>  <valueUnit>
%

>  <residual activity>
103

$$$$
>  <moleculeSmiles>
COc1cc2c(Nc3ccc(Br)cc3F)ncnc2cc1OCC1CCN(C)CC1

>  <measuredTarget>
DAPK2 (human)

>  <valueUnit>
%

>  <residual activity>
93.3

$$$$
>  <moleculeSmiles>
N/C(=N\N=C/c1ccc(-c2cccc([N+](=O)[O-])c2)o1)N[N+](=O)[O-]

>  <measuredTarget>
DAPK2 (human)

>  <valueUnit>
%

>  <residual activity>
80.1

$$$$

----------
Target: UniProt Q04771
Sequence (Q04771 whole entry, looked up): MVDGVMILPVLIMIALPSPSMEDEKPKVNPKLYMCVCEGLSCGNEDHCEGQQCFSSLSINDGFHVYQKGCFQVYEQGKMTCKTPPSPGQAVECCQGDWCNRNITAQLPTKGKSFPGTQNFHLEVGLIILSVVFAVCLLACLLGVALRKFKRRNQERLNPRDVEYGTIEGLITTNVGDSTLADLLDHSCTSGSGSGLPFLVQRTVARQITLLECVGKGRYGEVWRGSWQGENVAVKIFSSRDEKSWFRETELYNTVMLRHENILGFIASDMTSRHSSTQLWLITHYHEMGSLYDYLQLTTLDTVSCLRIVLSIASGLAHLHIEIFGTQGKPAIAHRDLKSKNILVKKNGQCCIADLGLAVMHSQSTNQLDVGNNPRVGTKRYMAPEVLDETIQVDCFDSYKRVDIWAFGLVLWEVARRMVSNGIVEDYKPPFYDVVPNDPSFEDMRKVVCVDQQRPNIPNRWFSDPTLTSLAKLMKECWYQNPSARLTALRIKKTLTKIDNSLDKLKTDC
Test: radiometric filter-binding kinase assay, Kinase HotSpot
Conditions: compound 0.5 µM; ATP 10 µM
measurementName: residual activity (%)

>  <moleculeSmiles>
c1ccc(-c2cnc(Nc3ccc(OCCN4CCCC4)cc3)s2)cc1

>  <measurementName>
residual activity

>  <reportedMeasurement>
164

$$$$
>  <moleculeSmiles>
O=C1NC(=O)c2c1c1c3ccccc3[nH]c1c1[nH]c3cc(Br)ccc3c21

>  <measurementName>
residual activity

>  <reportedMeasurement>
127

$$$$
>  <moleculeSmiles>
N#C/C(=C1/Nc2ccccc2S1)c1ccnc(NCCc2cccnc2)n1

>  <measurementName>
residual activity

>  <reportedMeasurement>
100

$$$$
>  <moleculeSmiles>
COc1cc2c(Nc3ccc(Br)cc3F)ncnc2cc1OCC1CCN(C)CC1

>  <measurementName>
residual activity

>  <reportedMeasurement>
208

$$$$
>  <moleculeSmiles>
O=C1NC(=O)c2cc(Nc3ccc(F)cc3)c(Nc3ccc(F)cc3)cc21

>  <measurementName>
residual activity

>  <reportedMeasurement>
92.3

$$$$

----------
Test system: SGK1 (human), O00141 [S422D]
Sequence (O00141 whole entry S422D, looked up): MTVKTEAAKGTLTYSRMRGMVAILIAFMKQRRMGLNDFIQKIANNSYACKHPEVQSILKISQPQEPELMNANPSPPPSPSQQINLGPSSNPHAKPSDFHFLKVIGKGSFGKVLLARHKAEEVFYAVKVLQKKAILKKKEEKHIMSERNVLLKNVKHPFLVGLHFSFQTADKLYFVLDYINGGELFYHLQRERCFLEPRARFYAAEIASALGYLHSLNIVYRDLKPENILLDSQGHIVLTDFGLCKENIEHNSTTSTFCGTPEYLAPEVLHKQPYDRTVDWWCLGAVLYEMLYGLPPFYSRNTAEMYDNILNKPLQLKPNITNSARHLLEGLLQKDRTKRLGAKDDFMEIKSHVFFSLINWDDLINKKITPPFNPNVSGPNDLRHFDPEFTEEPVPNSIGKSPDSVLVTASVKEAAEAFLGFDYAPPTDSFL
Test: radiometric filter-binding kinase assay, Kinase HotSpot
Conditions: compound 0.5 µM; ATP 10 µM
measurementName: residual activity (%)

>  <moleculeSmiles>
COc1ccc(C(=O)Nc2sc3c(c2C(N)=O)CCCC3)cc1OC

>  <reportedMeasurement>
98.7

$$$$
>  <moleculeSmiles>
CC(C)[C@H](CO)Nc1nc(Nc2cc(N)cc(Cl)c2)c2ncn(C(C)C)c2n1

>  <reportedMeasurement>
93.1

$$$$
>  <moleculeSmiles>
O=C1NC(=O)/C(=C/c2ccc3c(c2)OC(F)(F)O3)S1

>  <reportedMeasurement>
102

$$$$
>  <moleculeSmiles>
CN(C)c1ccc(/C=C2\C(=O)Nc3ccccc32)cc1

>  <reportedMeasurement>
93.1

$$$$
>  <moleculeSmiles>
Nc1nc(Nc2ccc(S(N)(=O)=O)cc2)nn1C(=O)c1c(F)cccc1F

>  <reportedMeasurement>
93

$$$$
>  <moleculeSmiles>
O=C1NC(=O)c2c1c1c3ccccc3[nH]c1c1[nH]c3cc(Br)ccc3c21

>  <reportedMeasurement>
47.6

$$$$
>  <moleculeSmiles>
O=c1cc(-c2cccc3c2Sc2ccccc2S3)oc(N2CCOCC2)c1

>  <reportedMeasurement>
90.6

$$$$
>  <moleculeSmiles>
O=c1cc(N2CCOCC2)oc2c(-c3ccccc3)cccc12

>  <reportedMeasurement>
101

$$$$
>  <moleculeSmiles>
CC[C@@H](CO)Nc1nc(NCc2ccccc2)c2ncn(C(C)C)c2n1

>  <reportedMeasurement>
120

$$$$
>  <moleculeSmiles>
N#Cc1c[nH]c2c[nH]/c(=N\Cc3cccnc3)cc2/c1=N\c1ccc(F)c(Cl)c1

>  <reportedMeasurement>
93.2

$$$$
>  <moleculeSmiles>
CCc1nc(-c2ccc(OC)cc2)[nH]c1-c1ccncc1

>  <reportedMeasurement>
104

$$$$
>  <moleculeSmiles>
O=C1Nc2ccc(Br)cc2/C1=C\c1cc2c([nH]1)CCCC2

>  <reportedMeasurement>
93.4

$$$$
>  <moleculeSmiles>
COc1cc2ncnc(Nc3cccc(Cl)c3)c2cc1OC

>  <reportedMeasurement>
91.3

$$$$
>  <moleculeSmiles>
CCN(CC)CCNC(=O)c1c(C)[nH]c(/C=C2\C(=O)Nc3ccc(F)cc32)c1C

>  <reportedMeasurement>
62.8

$$$$
>  <moleculeSmiles>
CS(=O)(=O)CCNCc1ccc(-c2ccc3ncnc(Nc4ccc(OCc5cccc(F)c5)c(Cl)c4)c3c2)o1

>  <reportedMeasurement>
128

$$$$
>  <moleculeSmiles>
Cc1nc2cc3nc(-c4cccs4)cnc3cc2n1C

>  <reportedMeasurement>
95.9

$$$$
>  <moleculeSmiles>
COc1cc2ncnc(Nc3ccc(O)c(Br)c3)c2cc1OC

>  <reportedMeasurement>
95.7

$$$$
>  <moleculeSmiles>
Cc1nc(-c2ccccc2)c(-c2ccncc2)o1

>  <reportedMeasurement>
99.3

$$$$
>  <moleculeSmiles>
N#C/C(=C\c1ccc(O)c(O)c1)C(=O)NCc1ccccc1

>  <reportedMeasurement>
103

$$$$
>  <moleculeSmiles>
Cc1[nH]c(/C=C2\C(=O)Nc3ccc(S(=O)(=O)N(C)c4cccc(Cl)c4)cc32)c(C)c1C(=O)N1CCN(C)CC1

>  <reportedMeasurement>
103

$$$$
>  <moleculeSmiles>
Nc1ncnc2[nH]nc(Nc3ccc(F)cc3)c12

>  <reportedMeasurement>
91.5

$$$$
>  <moleculeSmiles>
CCCCc1c(-c2ccc(O)cc2)[nH]c2nccnc12

>  <reportedMeasurement>
88.1

$$$$
>  <moleculeSmiles>
CN(C)C[C@H]1CCn2c(c(C3=C(c4cn(C)c5ccccc45)C(=O)NC3=O)c3ccccc32)C1

>  <reportedMeasurement>
72.9

$$$$
>  <moleculeSmiles>
COc1ccc(COc2ccc(Cc3cnc(N)nc3N)cc2OC)cc1

>  <reportedMeasurement>
97.9

$$$$
>  <moleculeSmiles>
O=c1[nH]c2ccccc2n1C1CCN(Cc2ccc(-c3nc4cc5[nH]cnc5cc4nc3-c3ccccc3)cc2)CC1

>  <reportedMeasurement>
102

$$$$
>  <moleculeSmiles>
CN([C@@H](Cc1ccc(OS(=O)(=O)c2cccc3cnccc23)cc1)C(=O)N1CCN(c2ccccc2)CC1)S(=O)(=O)c1cccc2cnccc12

>  <reportedMeasurement>
105

$$$$
>  <moleculeSmiles>
COc1cc2ncnc(Nc3ccc(Oc4ccccc4)cc3)c2cc1OC

>  <reportedMeasurement>
103

$$$$
>  <moleculeSmiles>
Nc1cccc(-c2cc3c(Oc4cccc(O)c4)ncnc3[nH]2)c1

>  <reportedMeasurement>
101

$$$$
>  <moleculeSmiles>
CC(C)n1cnc2c(Nc3cccc(Cl)c3)nc(NCCO)nc21

>  <reportedMeasurement>
115

$$$$
>  <moleculeSmiles>
COc1cc2ncnc(Nc3ccc(OCc4ccccc4)cc3)c2cc1OC

>  <reportedMeasurement>
103

$$$$
>  <moleculeSmiles>
Cc1cc2ncc(-c3ccccc3)nc2cc1C

>  <reportedMeasurement>
103

$$$$
>  <moleculeSmiles>
c1ccc2c(-c3ccncc3)c[nH]c2c1

>  <reportedMeasurement>
93.8

$$$$
>  <moleculeSmiles>
c1ccc(-c2n[nH]c3c2oc2ccccc23)cc1

>  <reportedMeasurement>
101

$$$$
>  <moleculeSmiles>
CCCCc1c(-c2ccc(OC)cc2)[nH]c2nccnc12

>  <reportedMeasurement>
88.4

$$$$
>  <moleculeSmiles>
O=c1c(-c2ccc(F)cc2)c(-c2ccncc2)[nH]n1-c1ccc(Cl)cc1

>  <reportedMeasurement>
97.3

$$$$
>  <moleculeSmiles>
CC(C)(C)c1cc(C=C(C#N)C#N)cc(Br)c1O

>  <reportedMeasurement>
95.3

$$$$
>  <moleculeSmiles>
c1ccc(-c2n[nH]cc2-c2ccnc3ccccc23)nc1

>  <reportedMeasurement>
103

$$$$
>  <moleculeSmiles>
CCN1/C(=C/C(C)=O)Sc2ccc(OC)cc21

>  <reportedMeasurement>
121

$$$$
>  <moleculeSmiles>
Oc1ccc(-c2nc(-c3ccc(F)cc3)c(-c3ccncc3)[nH]2)cc1

>  <reportedMeasurement>
101

$$$$
>  <moleculeSmiles>
Oc1cccc(-c2nc(N3CCOCC3)c3oc4ncccc4c3n2)c1

>  <reportedMeasurement>
100

$$$$
>  <moleculeSmiles>
O=C1C(Cl)=C(N2C(=O)CCC2=O)C(=O)c2ccccc21

>  <reportedMeasurement>
104

$$$$
>  <moleculeSmiles>
CC(=O)O/N=C1\C(=C2\C(=O)Nc3cc(Br)ccc32)Nc2ccccc21

>  <reportedMeasurement>
81.8

$$$$
>  <moleculeSmiles>
Cc1cncc2cccc(S(=O)(=O)N3CCCN(C(=O)CN)C[C@H]3C)c12

>  <reportedMeasurement>
103

$$$$
>  <moleculeSmiles>
Nc1ncnc2c1c(-c1ccc(Oc3ccccc3)cc1)cn2C1CCCC1

>  <reportedMeasurement>
103

$$$$
